Values were extracted from the supplement of paper PMC4121296.

Test system: Danio rerio embryo (fli1:egfp)
Test: heart rate at 72 hpf (beats per minute); higher = faster heart rate
Settings: 0.39 µM; exposure: 5-72 hpf
REPORTED ENDPOINT: heart rate at 72 hpf
Give bare numbers.

Here's what some known entries look like.
• CCCCCOC(=O)COc1cc(N2C(=O)C3=C(CCCC3)C2=O)c(F)cc1Cl = 175
• CC(C)Oc1cc(-n2nc(C(C)(C)C)oc2=O)c(Cl)cc1Cl = 186
• CCCCSP(=O)(SCCCC)SCCCC = 169
• CCOC(=O)C(Cl)Cc1cc(-n2nc(C)n(C(F)F)c2=O)c(F)cc1Cl (stereo not drawn) = 190
• CCOC(=O)C(C)OC(=O)c1cc(Oc2ccc(C(F)(F)F)cc2Cl)ccc1[N+](=O)[O-] (stereo not drawn) = 188
• C=CCOC(=O)C(C)(C)OC(=O)c1cc(-n2c(=O)cc(C(F)(F)F)n(C)c2=O)ccc1Cl = 185

For each entry beneath this line, provide reported heart rate at 72 hpf.
1. C#CCOC(=O)[C@@H](C)Oc1ccc(Oc2ncc(Cl)cc2F)cc1
2. COC(=O)N(C(=O)N1CO[C@@]2(C(=O)OC)Cc3cc(Cl)ccc3C2=N1)c1ccc(OC(F)(F)F)cc1
3. Cc1nn(-c2cc(NS(C)(=O)=O)c(Cl)cc2Cl)c(=O)n1C(F)F
4. O=C(O)c1cc(Oc2ccc(C(F)(F)F)cc2Cl)ccc1[N+](=O)[O-]
5. CCOc1cc(Oc2ccc(C(F)(F)F)cc2Cl)ccc1[N+](=O)[O-]
6. CCOC(=O)COc1cc(-c2nn(C)c(OC(F)F)c2Cl)c(F)cc1Cl
7. C[C@@]1(c2ccc(Oc3ccccc3)cc2)OC(=O)N(Nc2ccccc2)C1=O (racemic)

stdout:
188
183
157
168
185
167
177
